- Assay Conditions: in chloroform, 286.15 K

Compound Smiles	solubility (mole fraction)
Brc1sc(Br)c(Br)c1Br	0.0265

###

- Assay Conditions: in chloroform, 322.15 K

Compound Smiles	solubility (mole fraction)
Brc1sc(Br)c(Br)c1Br	0.0828

###

- Assay Conditions: in chloroform, 294.15 K
Readout Kind: solubility (mole fraction)

Compound Smiles	Measurement
Brc1sc(Br)c(Br)c1Br	0.0349

###

- Assay Conditions: in chloroform, 318.15 K
Readout Kind: solubility (mole fraction)

Compound Smiles	Measurement
Brc1sc(Br)c(Br)c1Br	0.0745

###

- Assay Conditions: in chloroform, 298.15 K

Compound Smiles	solubility (mole fraction)
Brc1sc(Br)c(Br)c1Br	0.0401
